- Assay Notes: reduction of polyQ htt aggregates in cells – imaging, exon1htt(103Q)mCFP cells, high-content imaging, primary screen (AID 483);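 also: compound exposure lasted 3 days before fixation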
- Test Conditions: exon1htt(103Q)mCFP cell line, aggregate imaging, at 2 µM; stronger effect = higher value
compounds and their reported inhibition of aggregation
Give the value in % but do not write % after it.

inhibition of aggregation in this record for CCn1c(Cc2ccc(OC)cc2)nnc1SCC(=O)Nc1cccc(C(=O)OC)c1 : 0.9

// CCOc1ncccc1C(=O)Nc1ccc2c(C)cc(=O)oc2c1 : inhibition of aggregation value = 10

For CC(=O)O[C@@]12CO[C@@H]1C[C@H](O)[C@@]1(C)C(=O)[C@H](O)C3=C(C)[C@@H](OC(=O)[C@H](O)[C@@H](NC(=O)OC(C)(C)C)c4ccccc4)C[C@](O)([C@@H](OC(=O)c4ccccc4)[C@H]21)C3(C)C the compound record lists inhibition of aggregation as -77

Measured inhibition of aggregation, CN1CCCc2cc(C#N)c(=O)[nH]c21 : -0.4

inhibition of aggregation reported for this compound Cc1ccccc1C(=O)NC1CCN(CC(=O)Nc2nccs2)CC1 : 8.2

Recorded inhibition of aggregation (compound COc1cccc(CNC(=O)CCn2c(=O)oc3ccccc32)c1 ): 21.1

Cc1ccc(C(=O)NC2CC3CCCC(C2)N3C(=O)NC2CCCCC2)cc1 (centres undefined) has a reported inhibition of aggregation of 0.8

inhibition of aggregation for O=C(NCc1ccco1)c1cc2n(n1)C(C(F)(F)F)CC(c1ccc(F)cc1)N2 (centres undefined) is -12.7

---
# inhibition of aggregation of C[C@H](NC(=O)Nc1ccccc1F)C(=O)O = 4.9

* * *

The entries below are paired with their reported inhibition of aggregation.
- Assay Notes: reduction of polyQ htt aggregates in cells – imaging, exon1htt(103Q)mCFP cells, high-content imaging, primary screen (AID 483);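 also: compound exposure lasted 3 days before fixation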
- Test Conditions: exon1htt(103Q)mCFP cell line, aggregate imaging, at 2 µM; stronger effect = higher value
Write down the numeric answer in % and omit the unit.

For record NC(=O)c1c(-c2ccccc2)oc2ccc(O)cc12 the listed inhibition of aggregation is 11.1

inhibition of aggregation for CCCn1c(N2CCN(CC(=O)Nc3ccc4c(c3)OCCO4)CC2)nc2ccccc21 is 1.8

Just so you know, measured inhibition of aggregation for O=C(Nc1cccc2c1CCCC2)C1CCN(c2nnnn2-c2ccccc2)CC1 came out at 0.3

Please fill in: inhibition of aggregation reported for CCOC(=O)c1nn(-c2sc(C(=O)OC)c(C)c2C(=O)OC)cc1O = 1

---
For this compound ( COc1ccc(N2CCN(C(=O)CSc3nnc(Cn4nnc5ccccc54)n3C)CC2)cc1 ), measured inhibition of aggregation is -2.8

* * *

- Assay Notes: reduction of polyQ htt aggregates in cells – imaging, exon1htt(103Q)mCFP cells, high-content imaging, primary screen (AID 483);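 also: compound exposure lasted 3 days before fixation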
- Test Conditions: exon1htt(103Q)mCFP cell line, aggregate imaging, at 2 µM; stronger effect = higher value
Readout Name: inhibition of aggregation (%)
Record the value in %, omitting the unit from your answer.

inhibition of aggregation recorded for this compound, c1ccc2c3nnc4n(c-3nc2c1)CCCS4 , is 0.4

// inhibition of aggregation value for Cc1cc(NC(=O)NC(=O)c2cccc(OC(F)(F)C(F)F)c2)n[nH]1 : -5.5

Entry COc1ccc(CNC(=O)c2cc(-c3ccc(OC)c(OC)c3)on2)cc1 — recorded inhibition of aggregation = 2

Lab note: Cc1cc2ncc(C(=O)Nc3ccccc3)c(C)n2n1 gave inhibition of aggregation of -9.1

Form field inhibition of aggregation, entry CCn1c(=O)cc(SCC(=O)NCC2CCCO2)c2ccccc21 (stereo unspecified) : 0

More entries:
Record CCOc1ccc2nc(S(N)(=O)=O)sc2c1 . Reported inhibition of aggregation: -4.8

COc1ccc(C(F)(F)F)cc1NC(=O)c1nc2nc(C)cc(C(F)F)n2n1 yielded inhibition of aggregation of 14.9

Briefly, inhibition of aggregation measured for CN1C(=O)NC(NC(=O)C2CCCCC2)(C(F)(F)F)C1=O (stereo unspecified) : 0.6

Input CC(=O)c1cccc(NC(=O)N2CCCC2C(=O)NCc2ccc(C)cc2)c1 (stereo unspecified) . Output inhibition of aggregation: 6.2

Briefly, inhibition of aggregation measured for Nc1ncnc2nc(SCCN3CCCCC3)[nH]c12 : 5

# compound CCOc1cc(C2C(C(=O)c3ccccc3)=C(C(=O)OC)Nc3nnnn32)ccc1O (stereo unspecified) ; its inhibition of aggregation = 0
